Cited source: patent US12599588B2

target.entity: V-ATPase (purified from enterococci or recombinant E. coli) (Enterococcus hirae, UniProt P43439+P43457)
Construct: made in house; host or cells: Enterococcus hirae (native) or recombinant E. coli
method.notes: ATPase activity measurement (molybdenum blue method, primary screening)
Assay type: biochemical
assay.conditions: IC50 (nM), Table 4; (1,2,4-oxadiazol-3-yl)phenyl derivatives
measurement.kind: IC50

Observe how each entry below is paired with its result.
Cc1ccc(C(=O)Nc2ccc(-c3noc(COc4cccc(C)c4C)n3)cc2)s1
6 nM
Cc1ccccc1OCc1nc(-c2ccc(NC(=O)c3cccs3)cc2)no1
40 nM
CCCc1ccc(OCc2nc(-c3ccc(NC(=O)c4cccs4)cc3)no2)cc1
50 nM

// switching to the query molecule
Data request, read-out IC50, for "Cc1cccc(OCc2nc(-c3ccc(NC(=O)c4cccs4)cc3)no2)c1C"
40 nM
